Target: Testis-specific chromodomain protein Y 1 (Homo sapiens, UniProt Q9Y6F8)
Sequence (Q9Y6F8 whole entry): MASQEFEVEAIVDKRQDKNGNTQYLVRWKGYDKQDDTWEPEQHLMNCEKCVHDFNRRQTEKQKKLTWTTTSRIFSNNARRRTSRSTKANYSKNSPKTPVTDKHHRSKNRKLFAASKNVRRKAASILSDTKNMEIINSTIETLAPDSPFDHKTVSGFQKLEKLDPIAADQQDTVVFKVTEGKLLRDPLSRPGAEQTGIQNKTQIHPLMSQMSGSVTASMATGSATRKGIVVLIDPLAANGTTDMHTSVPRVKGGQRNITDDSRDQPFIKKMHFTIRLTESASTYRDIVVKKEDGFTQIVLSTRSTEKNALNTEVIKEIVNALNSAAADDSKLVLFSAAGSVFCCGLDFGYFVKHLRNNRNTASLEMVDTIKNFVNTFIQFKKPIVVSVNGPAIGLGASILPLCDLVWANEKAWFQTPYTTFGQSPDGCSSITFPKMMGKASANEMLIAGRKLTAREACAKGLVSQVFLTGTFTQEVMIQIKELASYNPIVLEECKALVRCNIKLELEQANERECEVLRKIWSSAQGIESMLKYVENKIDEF
Test: Binding affinity to recombinant human N-terminal GST-tagged CDY1 (1 to 65 residues) expressed in Escherichia coli […] by SPR analysis
pKd: −log10 of the molar value.

{"columns": ["compound", "value-operator", "pKd"],
 "data": [
  ["COc1cccc(C(=O)CN2C(=O)COc3ccccc32)c1", "=", 4.95],
  ["CCCCN1C(=O)C(O)(CC(=O)c2cccc(OC)c2)c2ccccc21 (stereo not given)", "=", 4.76],
  ["CCN(CC)C1CCN(C(=O)Cn2c(=O)oc3ccc(F)cc32)CC1", "=", 5.35],
  ["CCc1ccc(C(=O)CC2(O)C(=O)Nc3ccc(Cl)cc32)cc1 (stereo not given)", "=", 4.47],
  ["O=C(Cn1c(=O)oc2ccc([N+](=O)[O-])cc21)N1CCC(N2CCCC2)CC1", "=", 4.25],
  ["COc1cccc(C(=O)CC2C(=O)Nc3ccc(Cl)cc32)c1 (racemic)", "<", 3.70],
  ["O=C(Cn1c(=O)oc2ccc(F)cc21)c1ccc2ccccc2c1", "=", 3.68],
  ["COc1ccc2oc(=O)n(CC(=O)c3ccc(OC)c(OC)c3)c2c1", "=", 4.95],
  ["C=CCN1C(=O)C(O)(CC(=O)c2ccc3ccccc3c2)c2ccccc21 (stereo not given)", "=", 4.61],
  ["O=C(Cn1c(=O)oc2ccc(Br)cc21)c1ccc2ccccc2c1", "=", 4.83]
]}

----------
List of Kd values.
Target: Chromobox protein homolog 7 (Homo sapiens, UniProt O95931)
Sequence (O95931 whole entry): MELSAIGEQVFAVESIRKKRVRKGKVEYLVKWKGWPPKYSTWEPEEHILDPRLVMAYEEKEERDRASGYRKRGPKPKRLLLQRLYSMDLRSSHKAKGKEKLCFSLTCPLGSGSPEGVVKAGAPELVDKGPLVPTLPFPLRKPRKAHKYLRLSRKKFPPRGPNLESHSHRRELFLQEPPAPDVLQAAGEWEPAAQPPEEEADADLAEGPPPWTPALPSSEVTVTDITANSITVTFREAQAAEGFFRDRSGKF
Experiment: Binding affinity to recombinant human N-terminal GST-tagged CBX7 (1 to 62 residues) expressed in Escherichia coli […] by SPR analysis

{"columns": ["molecule", "Kd"],
 "data": [
  ["CN(C)c1ccc(C(=O)Cn2c(=O)oc3ccccc32)cc1", "36.5 µM"],
  ["O=C(Cn1c(=O)oc2ccccc21)Nc1cccc2ccccc12", "> 200 µM"],
  ["COc1cccc(C(=O)CN2C(=O)COc3ccccc32)c1", "53 µM"],
  ["CCCN1C(=O)C(O)(CC(=O)c2cccc3ccccc23)c2ccccc21 (stereo not given)", "20.4 µM"],
  ["CCCN1C(=O)C(O)(CC(=O)c2ccc3c(c2)CCCC3)c2ccccc21 (stereo not given)", "7.2 µM"]
]}
